test system: Haemonchus contortus; details: 120 h, read-out: activity (larval mortality)
Recorded endpoint: mortality at 4 ppm
Please make sure the unit comes right after the number.

Cc1ccc(C)c(-c2cccc3c(N(C)C)c(C(=O)N[C@H]4CCOc5ccccc54)cnc23)c1 : 80%
O=C(N[C@H]1CCOc2ccccc21)c1cnc2c(-c3cc(Cl)ccc3F)c(F)ccc2c1N1CCOCC1 : 100%
CCc1c(C(=O)N[C@H]2CCOc3ccccc32)cnc2c(-c3cc(Cl)cc(Cl)c3)cccc12 : 100%
CNc1c(C(=O)N[C@H]2CCOc3ccccc32)cnc2c(-c3cc(Cl)cc(Cl)c3)cccc12 : 100%

Field request: mortality at 4 ppm | item: "CC(=O)N(C)Cc1c(C(=O)N[C@H]2CCOc3ccccc32)cnc2c(-c3cc(Cl)cc(Cl)c3)cccc12"
100%

Field request: mortality at 4 ppm | item: "O=C(N[C@H]1CCOc2ccccc21)c1cnc2c(-c3cc(Cl)ccc3F)cccc2c1N1CCOCC1"
90%
